Assay: qHTS Assay to Identify Small Molecule Activators of BRCA1 Expression; further: nearly all actives have a fitted effect of over 80% in size
Settings: MCF7-BRCA1-FFLuc reporter, luminescence, 48 h; series mostly up to 46.1 µM
Excerpt: Functionally, BRCA1 has been implicated in a wide array of cellular activities, including DNA damage repair, cell-cycle checkpoint control, growth inhibition, apoptosis, transcriptional regulation, chromatin remodeling, protein ubiquitylation, and mammary stem cell self-renewal and differentiation. […]
Hit rate of the full screen: of about 380,000 compounds, about 4,000 (1.1%) were called active. Another 3% or so got no clear call; they are omitted. The call rests on the fitted dose curve; in most records, active means well fitted activation curve with a large enough effect; inconclusive means small, poorly fitted or top-dose-only effect; inactive means no such curve, though single readings can be large or run the other way. The sample as a whole holds a higher share of actives than the screen did.
Respond with a class label; see yes (1) for active, no (0) for inactive

For orientation, consider the following solved cases.
[
  {
    "Molecule": "O=C(Nc1ccc2c(c1)OCCO2)C1CCCN(c2ncccn2)C1 (stereo not drawn)",
    "Label": "yes (1)"
  },
  {
    "Molecule": "O=C(Nc1ccc(Cl)cn1)c1cnn2cccnc12",
    "Label": "yes (1)"
  },
  {
    "Molecule": "COc1ccc(S(=O)(=O)NCc2cccn2Cc2cccc(C)c2)cc1Cl",
    "Label": "no (0)"
  },
  {
    "Molecule": "O=C(COC(=O)c1ccco1)Nc1ccc(Cl)cn1",
    "Label": "no (0)"
  },
  {
    "Molecule": "COc1cc2nc(SCc3ccc(F)cc3)n3nc(CCn4c(C)nc5ccccc54)nc3c2cc1OC",
    "Label": "no (0)"
  },
  {
    "Molecule": "Cc1cc(NC(=O)c2ccc(-c3ccc(Cl)cc3)o2)cc(-c2nc3ncccc3o2)c1O",
    "Label": "no (0)"
  },
  {
    "Molecule": "COc1cccc(/C(C)=N/Nc2ncc(Cl)cc2Cl)c1",
    "Label": "yes (1)"
  },
  {
    "Molecule": "COC(=O)c1sccc1N/N=C(\\C)c1ccc(F)c(Cl)c1",
    "Label": "no (0)"
  },
  {
    "Molecule": "CCOc1cccc(OCCCOc2cccc3cccnc23)c1",
    "Label": "no (0)"
  },
  {
    "Molecule": "CC(=O)NN=C(C)c1ccc(NC(=O)C2CC2)cc1",
    "Label": "no (0)"
  }
]

# outcome recorded in this test, key = COc1ccc(Cc2nc3ccc(C(=O)NCC4CCOCC4)cc3o2)cc1OC
no (0)

# outcome recorded in this test, key = O=C(Nc1cc(-c2nc3ccccc3o2)ccc1Cl)c1cc([N+](=O)[O-])ccc1N1CCOCC1
no (0)

# outcome recorded in this test, key = Cc1ccc(C)c(NC(=S)NNC(=S)Nc2ccc(C(C)C)cc2)c1
no (0)

# outcome recorded in this test, key = Cc1cc(C)c2nc(NC(=O)C3CCCO3)sc2c1 (stereo not drawn)
yes (1)

# outcome recorded in this test, key = O=C(CS(=O)(=O)c1cccc2nsnc12)N1CCN(c2cccc(Cl)c2)CC1
no (0)

# outcome recorded in this test, key = Cc1ccc(C(=O)O/N=C(\N)c2ccccn2)cc1Cl
no (0)

# outcome recorded in this test, key = COC(=O)C1C(=O)c2c([nH]c(C(=O)OCCSC)c2C)CC1C (stereo not drawn)
yes (1)

# outcome recorded in this test, key = CCOc1ccc(NC(=O)Nc2cc(C)on2)cc1
yes (1)

# outcome recorded in this test, key = COc1cc(-c2nnn(CC(=O)NCc3ccccc3)n2)cc(OC)c1OC
no (0)

# outcome recorded in this test, key = Cc1ccc(S(=O)(=O)c2c(Nc3cccc(Cl)c3)sc(C(=O)c3ccc4c(c3)OCO4)c2N)cc1
no (0)

# outcome recorded in this test, key = CCOC(=O)C1CCCN(CC(=O)Nc2cc(C)c3c(=O)oc4ccccc4c3n2)C1 (stereo not drawn)
no (0)

# outcome recorded in this test, key = Cc1ccc(NC(=S)NC(NC(=O)Cc2cccc3ccccc23)C(Cl)(Cl)Cl)cc1 (stereo not drawn)
no (0)

# outcome recorded in this test, key = Cc1ccc(N2CCN(C(=O)CCc3c(C)nc4c(c3C)c(=O)n(C)c(=O)n4C)CC2)c(C)c1
no (0)

# outcome recorded in this test, key = O=S(=O)(c1ccc(C2CCCCC2)cc1)N1CCN(c2ccc(Cl)c(Cl)c2)CC1
no (0)

# outcome recorded in this test, key = COc1ccc(C2=NN(C(=O)CSc3nc(=O)n4ccc(C)cc4n3)C(c3ccc(C)cc3)C2)cc1 (stereo not drawn)
no (0)

# outcome recorded in this test, key = COc1ccc(C2CC(c3ccccc3)=NN2C(=O)c2ccc(Cl)c([N+](=O)[O-])c2)cc1 (stereo not drawn)
no (0)

# outcome recorded in this test, key = C/C(=N/NS(=O)(=O)c1ccccc1)c1ccc(NC(=O)C(F)(F)F)cc1
no (0)

This collection of values is drawn from PubChem BioAssay AID624202.
